Target: ELIC R91A (Dickeya chrysanthemi, UniProt P0C7B7, INS163G/R91A)
Construct: expressed in transfected cells; host or cells: X. laevis oocytes
Assay: Two-electrode voltage clamp, ELIC R91A in oocytes
Format: cell-based, Erwinia chrysanthemi
Conditions: R91A; Ca^2+ 1 mM; agonist cysteamine
testReadout: EC50 (µM)
Report the figure in µM without appending any unit label.

The observed EC50 for `NCCS` when tested with ELIC R91A (Dickeya chrysanthemi, UniProt P0C7B7, INS163G/R91A) stands at 410

----------
Target: ELIC N251A (Dickeya chrysanthemi, UniProt P0C7B7, N250A)
Construct: expressed in transfected cells; host or cells: X. laevis oocytes
Assay: Two-electrode voltage clamp, ELIC N251A in oocytes
Type: cell-based, Erwinia chrysanthemi
Conditions: Ca^2+ 0 mM, agonist cysteamine
testReadout: pEC50
pEC50 here: minus log base 10 of the concentration, concentration in moles per litre.

Form: molecule = NCCS [cysteamine] ; pEC50 = 3.54

----------
Target: ELIC WT (Dickeya chrysanthemi, UniProt P0C7B7)
Construct: expressed in transfected cells; host or cells: X. laevis oocytes (cRNA injection, pTLN vector)
Assay: cell-based
Format: cell-based, Erwinia chrysanthemi
Conditions: WT/1Ca^2+; ACh 10 mM; agonist cysteamine
Description: Constructs containing the gene of either the WT or mutant channels preceded by the signal sequence of the chicken α7nAchR were cloned into the pTLN vector for expression in X. laevis oocytes. […] Currents were recorded in bath solutions containing 10 mM HEPES (pH 7), 130 mM NaCl, and the indicated concentrations of cysteamine and divalent cations. […]
testReadout: EC50 (mM)
State the answer as a number, implicitly in mM.

The compound NCCS [cysteamine] showed EC50 equal to 8.24

----------
Molecular target: ELIC N251A (Dickeya chrysanthemi, UniProt P0C7B7, N250A)
Construct: expressed in transfected cells; host or cells: X. laevis oocytes
Assay: Two-electrode voltage clamp, ELIC N251A in oocytes
Type: cell-based, Erwinia chrysanthemi
Settings: Ca^2+ 1 mM, agonist cysteamine
testReadout: pEC50
pEC50 is defined as minus the log10 of a concentration measured in mol/L.

# pEC50 (molecule: `NCCS` ) is 3.08

----------
Target: ELIC WT (Dickeya chrysanthemi, UniProt P0C7B7)
Construct: expressed in transfected cells; host or cells: X. laevis oocytes (cRNA injection, pTLN vector)
Assay: cell-based
Assay type: cell-based, Erwinia chrysanthemi
Conditions: WT/0.25Ca^2+; ACh 5 mM; agonist cysteamine
testReadout: EC50 (mM)
// note: answer is a bare numeric in mM

According to the records, this compound `NCCS` displays EC50 of 3.46

----------
Target: ELIC WT (Dickeya chrysanthemi, UniProt P0C7B7)
Construct: expressed in transfected cells; host or cells: X. laevis oocytes (cRNA injection, pTLN vector)
Experiment: cell-based
Type: cell-based, Erwinia chrysanthemi
Settings: WT/0.25Ca^2+; ACh 10 mM; agonist cysteamine
testReadout: EC50 (mM)
Unit mM implied. Number only.

Lab book: EC50 of `NCCS` noted as 5.08

----------
Target: ELIC WT (Dickeya chrysanthemi)
Construct: expressed in transfected cells; host or cells: X. laevis oocytes (cRNA injection, pTLN vector)
Assay: cell-based
Type: cell-based, Erwinia chrysanthemi
Details: WT/BAPTA; Ca^2+ 0 mM; agonist cysteamine
testReadout: EC50

// recorded EC50 for `NCCS` : 360 µM

----------
Biological target: ELIC R91A (Dickeya chrysanthemi, UniProt P0C7B7, INS163G/R91A)
Construct: expressed in transfected cells; host or cells: X. laevis oocytes
Assay: Two-electrode voltage clamp, ELIC R91A in oocytes
Assay type: cell-based, Erwinia chrysanthemi
Details: R91A; Ca^2+ 0.5 mM; agonist cysteamine
testReadout: pEC50
FYI, pEC50 means -log10 of a concentration in mol per litre.

// sample NCCS [cysteamine] , its pEC50 was 3.62

----------
Target: ELIC WT (Dickeya chrysanthemi, UniProt P0C7B7)
Construct: expressed in transfected cells; host or cells: X. laevis oocytes (cRNA injection, pTLN vector)
Experiment: cell-based
Type: cell-based, Erwinia chrysanthemi
Details: WT; Ca^2+ 5.0 mM; agonist cysteamine
testReadout: EC50
Respond with a number, then the unit of measure.

Item: `NCCS` | EC50: 4.37 mM

----------
Molecular target: ELIC N251A (Dickeya chrysanthemi, UniProt P0C7B7, N250A)
Construct: expressed in transfected cells; host or cells: X. laevis oocytes
Assay: Two-electrode voltage clamp, ELIC N251A in oocytes
Format: cell-based, Erwinia chrysanthemi
Details: Ca^2+ 5 mM, agonist cysteamine
testReadout: EC50 (mM)
Answer in mM, number only, no unit symbol.

// EC50 lookup, molecule = `NCCS` , result: 1.9

----------
Biological target: ELIC S84A (Dickeya chrysanthemi, UniProt P0C7B7, INS163G/S84A)
Construct: expressed in transfected cells; host or cells: X. laevis oocytes
Experiment: Two-electrode voltage clamp, ELIC S84A in oocytes
Format: cell-based, Erwinia chrysanthemi
Details: S84A; Ca^2+ 1 mM; agonist cysteamine
testReadout: pEC50
API: returns pEC50 as number; meaning -log10 of concentration in mol/L.

Reported pEC50 for `NCCS` was 2.81

----------
Target: ELIC D86A (Dickeya chrysanthemi, UniProt P0C7B7, D86A/INS163G)
Construct: expressed in transfected cells; host or cells: X. laevis oocytes
Experiment: Two-electrode voltage clamp, ELIC D86A in oocytes
Assay type: cell-based, Erwinia chrysanthemi
Settings: Schild analysis, read-out: Ki app
testReadout: pKi
Please note pKi is a logarithmic value: minus log10 of concentration in mol/L. Answer with that number alone.

Input `[Ca+2]` . Output pKi: 3.60

----------
Biological target: ELIC D158A (Dickeya chrysanthemi, UniProt P0C7B7, D158A/INS163G)
Construct: expressed in transfected cells; host or cells: X. laevis oocytes
Assay: Two-electrode voltage clamp, ELIC D158A in oocytes
Assay type: cell-based, Erwinia chrysanthemi
Conditions: Ca^2+ 0 mM, agonist cysteamine
testReadout: pEC50
pEC50 (log units): -log10 of the concentration in mol/L.

// pEC50 value for NCCS [cysteamine] : 2.75

----------
Target: ELIC E150A (Dickeya chrysanthemi, UniProt P0C7B7, E150A/INS163G)
Construct: expressed in transfected cells; host or cells: X. laevis oocytes
Test: Two-electrode voltage clamp, ELIC E150A in oocytes
Type: cell-based, Erwinia chrysanthemi
Conditions: Ca^2+ 1 mM, agonist cysteamine
testReadout: EC50 (µM)
Report only the number, with the unit µM understood.

Recorded EC50 (compound `NCCS` ): 2200
